Target: HMGB1 (native, calf/bovine thymus) (Bos taurus, UniProt P10103 P10103:2-215)
Sequence (P10103 2-215, one chain of several): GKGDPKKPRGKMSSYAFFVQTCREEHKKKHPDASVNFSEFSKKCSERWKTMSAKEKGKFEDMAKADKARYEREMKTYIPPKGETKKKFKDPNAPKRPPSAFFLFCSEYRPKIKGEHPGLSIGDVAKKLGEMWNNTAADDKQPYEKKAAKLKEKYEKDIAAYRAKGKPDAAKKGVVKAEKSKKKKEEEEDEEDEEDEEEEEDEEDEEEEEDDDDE
Assay: apparent Kd; intrinsic tryptophan fluorescence quench, 1.7 uM HMGB1, 1:10 DPBS, 25 C
Settings: tags: none; purified from bovine thymus at Medimmune; label: biotin (ELISA)
ENDPOINT_NAME: Kd (nM)
Dear colleague, please return just the value in nM, with no unit written.

Prompt: Tell me measured Kd for GGGGGACGATCGTCGGGGGG (ssDNA) [CpG-A (ODN2216)] please.
Response: 70
